Tested on: S. aureus (S)
Experiment: Susceptibility test of Gram positive Bacteria
Type: cell-based
Set-up: key: R = resistant; S = susceptible; BLAC = Beta-lactamase positive
Observation type: Susceptibility test

Example entries and their recorded answers appear below.
>  <Query smiles>
CCC[C@@H]1C[C@@H](C(=O)N[C@@H]([C@H]2O[C@H](SC)[C@H](O)[C@@H](O)[C@H]2O)[C@H](C)Cl)N(C)C1

>  <Observed>
S

$$$$
>  <Query smiles>
CC1(C)S[C@@H]2[C@H](NC(=O)Cc3ccccc3)C(=O)N2[C@H]1C(=O)O

>  <Observed>
BLAC

$$$$
>  <Query smiles>
CC[C@H]1OC(=O)[C@H](C)[C@@H](O[C@H]2C[C@@](C)(OC)[C@@H](O)[C@H](C)O2)[C@H](C)[C@@H](O[C@@H]2O[C@H](C)C[C@H](N(C)C)[C@H]2O)[C@](C)(O)C[C@@H](C)C(=O)[C@H](C)[C@@H](O)[C@]1(C)O

>  <Observed>
R

$$$$
>  <Query smiles>
C/C(=C\C(=O)OCCCCCCCCC(=O)O)C[C@@H]1OC[C@H](C[C@@H]2O[C@H]2[C@@H](C)[C@H](C)O)[C@@H](O)[C@H]1O

>  <Observed>
S

$$$$
>  <Query smiles>
CC1(C)S[C@@H]2[C@H](NC(=O)[C@H](N)c3ccccc3)C(=O)N2[C@H]1C(=O)O

>  <Observed>
BLAC

$$$$
>  <Query smiles>
Cc1onc(-c2ccccc2)c1C(=O)N[C@@H]1C(=O)N2[C@@H]1SC(C)(C)[C@@H]2C(=O)O

>  <Observed>
S

$$$$

Please give the measured Susceptibility test for this compound: C[C@@H](O)[C@H]1C(=O)N2C(C(=O)O)=C(SCCN=CN)C[C@H]12 S

Please give the measured Susceptibility test for this compound: O=C(O)c1cn(C2CC2)c2cc(N3CCNCC3)c(F)cc2c1=O S

This collection of values is drawn from patent US11806790B2.
